Biological target: norepinephrine transporter (NET) (Homo sapiens)
Assay: cell-based
Format: cell-based
Settings: read-out: NET Ki; inhibition of transporter uptake activity
valueKind: Ki
In your response, put the unit directly after the numeric value.

get_value(item= CNC(C)Cc1cccs1.Cl (stereo not shown) , readout=Ki) returns 313 nM

====

Biological target: UniProt P41595
Sequence (P41595 whole entry): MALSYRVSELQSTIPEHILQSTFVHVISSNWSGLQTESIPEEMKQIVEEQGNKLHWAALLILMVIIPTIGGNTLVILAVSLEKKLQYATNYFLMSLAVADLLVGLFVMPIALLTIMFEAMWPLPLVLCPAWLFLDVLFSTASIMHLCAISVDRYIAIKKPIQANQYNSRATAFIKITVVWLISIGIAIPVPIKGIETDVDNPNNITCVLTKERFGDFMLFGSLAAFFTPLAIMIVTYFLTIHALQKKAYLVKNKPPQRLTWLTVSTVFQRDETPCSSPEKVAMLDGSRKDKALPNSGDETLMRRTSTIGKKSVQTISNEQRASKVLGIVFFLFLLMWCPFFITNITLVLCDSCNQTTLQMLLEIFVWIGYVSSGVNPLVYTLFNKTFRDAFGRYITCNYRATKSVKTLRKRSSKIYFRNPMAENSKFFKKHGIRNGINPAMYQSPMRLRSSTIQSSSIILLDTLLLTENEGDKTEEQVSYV
Experiment: Radioligand binding assay
valueKind: 5-HT2B receptor affinity Ki

> print(dat)
                                   compound  observedmeasurement
1  CCCC(C(=O)c1cccc2ccccc12)N1CCCC1.Cl (stereo not shown) [1-Naphyrone]        submicromolar
2  CNC(C)C(=O)c1ccc(C)cc1.Cl (stereo not shown) [Mephedrone]        submicromolar
3  CCCC(C(=O)c1ccc2ccccc2c1)N1CCCC1.Cl (stereo not shown) [Naphyrone]        submicromolar
4  Cl.NC1CCc2cc3c(cc2C1)OCO3 (stereo not shown) [Methylenedioxy-aminotetralin]        submicromolar

====

Biological target: dopamine transporter (DAT) (Homo sapiens, UniProt Q01959)
Sequence (Q01959 whole entry): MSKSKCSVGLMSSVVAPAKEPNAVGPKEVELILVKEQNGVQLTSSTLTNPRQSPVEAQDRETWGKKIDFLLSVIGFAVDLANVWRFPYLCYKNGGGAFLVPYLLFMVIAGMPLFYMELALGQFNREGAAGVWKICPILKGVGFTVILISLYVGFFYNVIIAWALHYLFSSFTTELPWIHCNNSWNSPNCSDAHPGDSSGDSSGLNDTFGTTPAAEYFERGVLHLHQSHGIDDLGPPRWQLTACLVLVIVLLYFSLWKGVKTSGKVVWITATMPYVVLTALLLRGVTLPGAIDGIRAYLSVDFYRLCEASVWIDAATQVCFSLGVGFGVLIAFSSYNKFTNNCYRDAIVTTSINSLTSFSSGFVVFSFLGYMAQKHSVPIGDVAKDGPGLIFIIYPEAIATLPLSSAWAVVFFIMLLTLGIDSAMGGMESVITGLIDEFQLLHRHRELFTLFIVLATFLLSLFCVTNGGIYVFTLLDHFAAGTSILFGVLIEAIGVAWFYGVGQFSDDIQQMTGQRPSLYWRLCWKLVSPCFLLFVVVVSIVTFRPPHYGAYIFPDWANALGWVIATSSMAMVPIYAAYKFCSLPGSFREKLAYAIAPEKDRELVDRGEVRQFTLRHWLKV
Test: cell-based
Conditions: DAT Ki, inhibition of transporter uptake activity
Counter-ions that a name gives are not always drawn.
Kindly state pKi for each of the entries shown.
Answers are plain numbers, as −log10 of the molar value.

> print(dat)
                                   compound  valuekind  observedmeasurement
1  c1ccc(C(c2ccccc2)C2CCCCN2)cc1 (centres unmarked) [Desoxypipradrol, 2-benzhydrylpiperidine hydrochloride]        pKi                 7.49
2  CC(NCc1ccccc1)C(=O)c1ccc2c(c1)OCO2 (centres unmarked)        pKi                 6.20
3  CCNC(C)C(=O)c1ccc(C)cc1 (centres unmarked)        pKi                 6.25

Bench note, dopamine transporter (DAT) (Homo sapiens, UniProt Q01959): entry Cl.NC1CCc2cc3c(cc2C1)OCO3 (centres unmarked) , its pKi = 5.39

====

Biological target: norepinephrine transporter (NET) (Homo sapiens, UniProt P23975)
Sequence (P23975 whole entry): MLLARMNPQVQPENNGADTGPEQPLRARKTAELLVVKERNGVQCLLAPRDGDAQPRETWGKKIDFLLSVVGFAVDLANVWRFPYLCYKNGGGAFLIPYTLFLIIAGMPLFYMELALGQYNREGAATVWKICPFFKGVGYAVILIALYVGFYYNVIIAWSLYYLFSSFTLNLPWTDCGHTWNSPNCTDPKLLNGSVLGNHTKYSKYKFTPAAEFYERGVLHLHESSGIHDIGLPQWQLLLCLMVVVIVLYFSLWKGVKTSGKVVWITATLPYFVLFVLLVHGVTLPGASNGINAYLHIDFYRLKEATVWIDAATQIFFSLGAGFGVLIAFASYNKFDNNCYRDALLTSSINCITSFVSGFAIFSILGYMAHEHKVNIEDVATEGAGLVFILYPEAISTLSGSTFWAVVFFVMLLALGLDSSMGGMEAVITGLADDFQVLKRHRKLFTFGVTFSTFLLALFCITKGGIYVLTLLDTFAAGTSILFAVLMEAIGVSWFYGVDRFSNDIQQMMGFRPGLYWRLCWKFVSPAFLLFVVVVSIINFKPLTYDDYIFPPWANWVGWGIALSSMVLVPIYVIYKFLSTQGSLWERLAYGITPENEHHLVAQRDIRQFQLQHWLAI
Experiment: cell-based
Format: cell-based
Settings: NET Ki, inhibition of transporter uptake activity
Counter-ions that a name gives are not always drawn.
valueKind: pKi
One number for each entry, as −log10 of the molar value.

Use these answered entries as a reference point.
> print(dat)
                                   molecule  observedmeasurement
1  NC1Cc2cc3c(cc2C1)OCO3 [Methylenedioxy-aminoindane]                 6.19
2  NC1Cc2ccc(I)cc2C1 (stereo not shown) [5-iod-2-aminoindane]                 6.51
3  CCNC(C)C(=O)c1ccc(C)cc1 (stereo not shown) [Methylethcathinone]                 5.78

Would you mind giving pKi for every molecule in the list below?
1. CNC(C)C(=O)c1ccc(C)cc1.Cl (stereo not shown) [Mephedrone]
2. c1ccc(C(c2ccccc2)C2CCCCN2)cc1 (stereo not shown) [Desoxypipradrol, 2-benzhydrylpiperidine hydrochloride]
3. CC(N)Cc1ccc2ccoc2c1.Cl (stereo not shown) [6-APB]
4. CC(N)Cc1ccc2occc2c1.Cl (stereo not shown) [5-APB]

1. 6.29
2. 6.67
3. 6.93
4. 6.74

====

Biological target: dopamine transporter (DAT) (Homo sapiens)
Experiment: cell-based
Conditions: DAT pKi (mean +/- S.E.M), inhibition of transporter uptake activity, N=3
Structures can show the parent of a compound that is named as a salt.
Field: log10(Ki). Provide a value for each of the compounds that follow.
For clarity, the numbers are log10 values of Ki expressed in nM.

Field: example entries. Status: answers known.
> print(dat)
                                    compound  observedmeasurement
 1  CC(N)Cc1ccc2occc2c1.Cl (stereo not drawn) [5-APB]                 2.70
 2  CCC(C)CC(C)N (stereo not drawn) [Dimethylamylamine, 4-methylhexan-2-amine hydrochloride]                 4.26
 3  CCCC(C(=O)c1cccc2ccccc12)N1CCCC1.Cl (stereo not drawn) [1-Naphyrone]                 1.68
 4  CNC(C)C(=O)c1ccc(C)cc1.Cl (stereo not drawn) [Mephedrone]                 2.92
 5  NC1Cc2cc3c(cc2C1)OCO3 [Methylenedioxy-aminoindane]                 3.88
 6  CC(NCc1ccccc1)C(=O)c1ccc2c(c1)OCO2 (stereo not drawn) [Methylenedioxy-N-benzylcathinone]                 2.99
 7  Cc1ccc(C(=O)C(C)NCc2ccccc2)cc1 (stereo not drawn) [Benzedrone]                 3.36
 8  CCNC(C)C(=O)c1ccc(C)cc1 (stereo not drawn) [Methylethcathinone]                 2.92
 9  CC(N)Cc1ccc2ccoc2c1.Cl (stereo not drawn) [6-APB]                 2.37
10  NC1Cc2ccc(I)cc2C1 (stereo not drawn) [5-iod-2-aminoindane]                 3.39

Batch request: log10(Ki) per item, same order as input.
1. Cl.NC1CCc2cc3c(cc2C1)OCO3 (stereo not drawn) [Methylenedioxy-aminotetralin]
2. c1ccc(C(c2ccccc2)C2CCCCN2)cc1 (stereo not drawn) [Desoxypipradrol, 2-benzhydrylpiperidine hydrochloride]

3.80
1.70
